System: 422866-222-R5-J1-PDC complex spheroids viability;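 also: spheroids exposed to compounds for 7 days; 100% = DMSO vehicle control viability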
METHOD_NOTES: Anticancer human tumor 422866-222-R5-J1-PDC patient-derived pancreatic adenocarcinoma cell line growth inhibition [RAS]
PROTOCOL_CONDITIONS: second compound 0.03 µM; first compound 0.316 µM; stronger effect = lower value
OBSERVED_PROPERTY: viability, T/C

Specify measured viability, T/C for CC(C)NCC(C(=O)N1CCN(c2ncnc3c2C(C)CC3O)CC1)c1ccc(Cl)cc1 (centres undefined) + CCn1c(-c2cc(N3CCN(C)CC3)cnc2C(C)OC)c2c3cc(ccc31)-c1csc(n1)CC(NC(=O)C1CC1C)C(=O)N1CCCC(N1)C(=O)OCC(C)(C)C2 .
14.9%

Specify measured viability, T/C for CC1(O)CCCC1n1c(=O)c(C(F)F)cc2cnc(NC3CCN(S(C)(=O)=O)CC3)nc21 (centres undefined) + CCn1c(-c2cccnc2C(C)OC)c2c3cc(ccc31)N1CCOC(CC(NC(=O)C(C(C)C)N(C)C(=O)C3(F)CCN(C(=O)C#CC(C)(C)N(C)C)CC3)C(=O)N3CCCC(N3)C(=O)OCC(C)(C)C2)C1 .
23.5%

Specify measured viability, T/C for Cc1nc(N2CCC3(CC2)COC(C)C3N)c(CO)nc1Sc1ccnc(N)c1Cl (centres undefined) + CCn1c(-c2cc(N3CCN(C)CC3)cnc2C(C)OC)c2c3cc(ccc31)-c1csc(n1)CC(NC(=O)C1CC1C)C(=O)N1CCCC(N1)C(=O)OCC(C)(C)C2 .
18.6%

***
Specify measured viability, T/C for CC(=O)OC12COC1CC(O)C1(C)C(=O)C(O)C3=C(C)C(OC(=O)C(O)C(NC(=O)OC(C)(C)C)c4ccccc4)CC(O)(C(OC(=O)c4ccccc4)C21)C3(C)C (centres undefined) + CCn1c(-c2cccnc2C(C)OC)c2c3cc(ccc31)N1CCOC(CC(NC(=O)C(C(C)C)N(C)C(=O)C3(F)CCN(C(=O)C#CC(C)(C)N(C)C)CC3)C(=O)N3CCCC(N3)C(=O)OCC(C)(C)C2)C1 .
21.6%
